system: human LTβR (human, UniProt P36941 31-227)
Sequence (P36941 31-227): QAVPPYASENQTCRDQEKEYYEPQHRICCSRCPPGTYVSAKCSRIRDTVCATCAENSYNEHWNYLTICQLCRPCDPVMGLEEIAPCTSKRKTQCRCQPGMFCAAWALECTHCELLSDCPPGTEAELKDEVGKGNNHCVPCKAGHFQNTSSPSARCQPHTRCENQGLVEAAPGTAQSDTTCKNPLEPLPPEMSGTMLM
resultType: pKd
Convention used: pKd is expressed as -log10 of the molar concentration.

Fill in pKd for record m4-14 (protein) RRSHEVNPAAHLTGANSSLTGSGGPLLWETQLGLAFLSGLSYHDGALVVTKAGYYYIYSKVQLRGVGCPLGLASTITHGLYKRTPRYPEELELLVSQQSPCGRATSSSRVWWDSSFLGGVVHLEAGEEVVVRVLGERLVRLRDGTRSYFGAFMV
9.80

Return reported pKd. Input binder: m4-16 (protein) RRSHEVNPAAHLTGANFSLTGSGGPLLWETQLGQAFLRGLSYHDGALVVTKAGYYYIYSKVQLGGVGCPLGLASTITHGLYKRTPRYPEELELLVSQQSPCGRATSSSRVWWDSSFLGGVVHLEAGEEVVVRVLDDRLVRLRDGTRSYFGAFMV
9.89

Tell me its pKd given m4-7 (protein) RRSHEVNPAAHLTGANSSSTGSGGPLLWETQLGLAFLRGLSYHDGALVVTKAGYYYIYSKVQLRGVGCPLGLASTITHGLYKRTPRYPEELELLVSQQSPCGRATSSSRVWWDSSFLGGVVHLEAGEEVVVRVLDERLVRLRDGTRSYFGAFMV as the entry.
9.80

Return value of pKd for input wild type human LIGHT (ligand) LIQERRSHEVNPAAHLTGANSSLTGSGGPLLWETQLGLAFLRGLSYHDGALVVTKAGYYYIYSKVQLGGVGCPLGLASTITHGLYKRTPRYPEELELLVSQQSPCGRATSSSRVWWDSSFLGGVVHLEAGEKVVVRVLDERLVRLRDGTRSYFGAFMV , no commentary.
8.89
